Reported Kd values are given for each entry in this list.
Target: T1, recombinant LILRB2 ECD (human, UniProt Q8N423 22-460)
T1 construct: also called biotinylated LILRB2 ECD
T1 sequence (Q8N423 22-460 limits assumed): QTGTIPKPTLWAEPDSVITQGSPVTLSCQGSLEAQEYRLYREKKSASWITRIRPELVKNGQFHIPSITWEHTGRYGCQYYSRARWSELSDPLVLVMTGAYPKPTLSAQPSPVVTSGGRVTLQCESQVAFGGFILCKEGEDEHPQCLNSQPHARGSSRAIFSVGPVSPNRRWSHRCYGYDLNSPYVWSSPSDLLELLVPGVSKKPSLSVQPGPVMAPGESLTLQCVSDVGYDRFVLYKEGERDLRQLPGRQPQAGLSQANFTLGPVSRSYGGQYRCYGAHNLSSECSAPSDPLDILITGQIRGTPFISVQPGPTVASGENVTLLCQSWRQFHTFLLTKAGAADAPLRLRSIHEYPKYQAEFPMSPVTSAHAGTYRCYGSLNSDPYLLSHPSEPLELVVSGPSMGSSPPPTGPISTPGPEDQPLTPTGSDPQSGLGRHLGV
Assay: BLI, IgG on AHC sensor, ECD in solution
Procedure: Briefly, IgGs were captured on anti-human capture (AHC) biosensors (Sartorius). […] Subsequently, the sensors were dipped into 1× Kinetics Buffer to measure the dissociation over 420 s. All sensorgrams were double referenced against 1× Kinetics Buffer and unloaded […] sensors to subtract sensor drifts and potential reference binding of the analytes. The affinities were determined by applying a 1:1 binding model.
Quick note: give the figure in nM, leave out the unit.

Before answering, review these 3 worked examples.
A-019 (antibody, V domains shown, tested as IgG) VH: QVQLVQSGAEVKKPGSSVKVSCKASGYTFTTSAMNWVRQAPGQGLEWMGGIIPYFSTANYAPKFQGRVTITADESTSTAYMELSSLRSEDTAVYYCAKDLGTYSSGWPYYYGMDVWGQGTTVTVSS VL: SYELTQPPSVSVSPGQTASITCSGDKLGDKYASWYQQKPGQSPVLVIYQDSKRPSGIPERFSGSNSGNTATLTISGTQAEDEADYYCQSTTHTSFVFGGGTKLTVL | 3.9
A-006 (antibody, V domains shown, tested as IgG) VH: QVQLVQSGAEVKKPGSSVKVSCKASGGTFSQYAFSWVRQAPGQGLEWMGSIIPGFTTSNYAHKFQGRVTITADESTSTAYMELSSLRSEDTAVYYCAKDLGTYSSGWPYYYGMDVWGQGTTVTVSS VL: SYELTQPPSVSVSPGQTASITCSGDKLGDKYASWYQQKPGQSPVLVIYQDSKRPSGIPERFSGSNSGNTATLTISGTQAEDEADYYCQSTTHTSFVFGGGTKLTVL | 2.3
A-015 (antibody, V domains shown, tested as IgG) VH: QVQLVQSGAEVKKPGSSVKVSCKASGGSFQSYAINWVRQAPGQGLEWMGGIIPGFSTANYAQKFQGRVTITADESTSTAYMELSSLRSEDTAVYYCAKDLGTYSSGWPYYYGMDVWGQGTTVTVSS VL: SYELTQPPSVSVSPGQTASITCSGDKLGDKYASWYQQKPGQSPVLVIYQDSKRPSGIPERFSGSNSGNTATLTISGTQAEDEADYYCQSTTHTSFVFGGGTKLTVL | 3.5

Please look up its Kd: A-001 (antibody, V domains shown, tested as IgG; also called parental antibody A-001) VH: QVQLVQSGAEVKKPGSSVKVSCKASGGTFSSYAISWVRQAPGQGLEWMGGIIPIFGTANYAQKFQGRVTITADESTSTAYMELSSLRSEDTAVYYCAKDLGTYSSGWPYYYGMDVWGQGTTVTVSS VL: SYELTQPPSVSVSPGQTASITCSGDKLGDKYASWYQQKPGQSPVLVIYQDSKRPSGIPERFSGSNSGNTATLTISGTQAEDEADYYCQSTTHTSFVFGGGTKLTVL 36.4

Please look up its Kd: A-037 (antibody, V domains shown, tested as IgG) VH: QVQLVQSGAEVKKPGSSVKVSCKASGGTFSSYAISWVRQAPGQGLEWMGGIIPIFGTANYAQKFQGRVTITADESTSTAYMELSSLRSEDTAVYYCARVHLYYHFPASYFDYWGQGTLVTVSS VL: SYELTQPPSVSVSPGQTASITCSGDKLGDKYASWYQQKPGQSPVLVIYQDSKRPSGIPERFSGSNSGNTATLTISGTQAEDEADYYCLASLGTGGVYVFGGGTKLTVL 2

Please look up its Kd: Ref047 [MK-4830, LILRB2 specific] (antibody, from another filing, V domains shown) VH: EVQLQQWGAGLLKPSETLSLTCAVYGGSFSGYYWSWIRQPPGKGLEWIGEINHAGSTNYNPSLKSRVTISVDTSKNQFSLKLSSVTAADTAVYYCARLPTRWVTTRYFDLWGRGTLVTVSS VL: ESVLTQPPSVSGAPGQRVTISCTGSSSNIGAGYDVHWYQQLPGTAPKLLIYGDSNRPSGVPDRFSVSKSGASASLAITGLQAEDEADYYCQSFDNSLSAYVFGGGTQLTVL 3.4
